Test system: C. pylori CLO 6
Experiment: MIC, agar-plate dilution method, test strain G
Type: cell-based
Settings: Helicobacter pylori, CLO6, 72 h, Brucella agar, 37° C., 3 days
Reported MIC values follow for various compounds

{"columns": ["compound", "unit-of-measure", "MIC"],
 "data": [
  ["Cc1c(OCC(F)(F)C(F)F)ccnc1C[S+]([O-])c1nc2ccccc2[nH]1 (stereo not drawn)", "µg/mL", 6.25],
  ["CC(C)COc1ccnc(CSc2nc3ccccc3[nH]2)c1", "µg/mL", 12.5],
  ["C#CCOc1ccnc(CSc2nc3cc(C(F)(F)F)ccc3[nH]2)c1", "µg/mL", 12.5]
]}

====

System: C. pylori CLO 6
Assay: MIC, agar-plate dilution method, test strain G
Type: cell-based
Conditions: Helicobacter pylori, CLO6, 72 h, Brucella agar, 37° C., 3 days
property-label: MIC (µg/mL)

{"columns": ["compound", "measured-target", "property-label", "measurement"],
 "data": [
  ["Cc1c(OCC(F)(F)F)ccnc1C[S+]([O-])c1nc2ccccc2[nH]1 (stereo not drawn) [Compound 1]", "C. pylori CLO 6", "MIC", 3.13],
  ["Cc1c(OCC(F)(F)C(F)(F)F)ccnc1CSc1nc2ccccc2[nH]1 [Compound 13]", "C. pylori CLO 6", "MIC", 1.56],
  ["Cc1c(OCC(F)(F)C(F)F)ccnc1CSc1nc2ccccc2[nH]1 [Compound 12]", "C. pylori CLO 6", "MIC", 0.78],
  ["CC(C)Oc1ccnc(CSc2nc3cc(C(F)(F)F)ccc3[nH]2)c1 [Compound 9]", "C. pylori CLO 6", "MIC", 12.5],
  ["COc1ccc2[nH]c([S+]([O-])Cc3ncc(C)c(OC)c3C)nc2c1 (stereo not drawn) [Compound 2]", "C. pylori CLO 6", "MIC", 12.5],
  ["CC(C)COc1ccnc(CSc2nc3cc(C(F)(F)F)ccc3[nH]2)c1 [Compound 8]", "C. pylori CLO 6", "MIC", 12.5],
  ["Cc1c(OCC(F)(F)C(F)(F)F)ccnc1C[S+]([O-])c1nc2ccccc2[nH]1 (stereo not drawn) [Compound 3]", "C. pylori CLO 6", "MIC", 6.25],
  ["Cc1c(OCC(F)(F)F)ccnc1CSc1nc2ccccc2[nH]1 [Compound 6]", "C. pylori CLO 6", "MIC", 6.25],
  ["C=CCOc1ccnc(CSc2nc3cc(C(F)(F)F)ccc3[nH]2)c1 [Compound 10]", "C. pylori CLO 6", "MIC", 25]
]}
